# tested system: CCK receptor (brain, cerebral cortex) (Cavia porcellus, UniProt H0VZC5)
# Construct: Cerebral cortex was dissected and used as a receptor source; from tissue; host or cells: guinea pig cerebral cortex membranes (male Hartley)
# assay: biochemical
# Format: binding, Male Hartley guinea pigs
# conditions used: IC50 ^125 I-CCK Brain, guinea pig cerebral cortex, ^125 I-CCK-33, 25° C., 2 hours
One threshold, 9 µM, splits the recorded IC50 values: lower ones are fulfilled, equal or higher ones are not fulfilled.

1. CCCc1ccc(C(=O)NC2N=C(c3ccccc3)c3ccccc3NC2=O)cc1 (racemic)    not fulfilled
2. CC(C)(C)OC(=O)N[C@@H](Cc1ccccc1)C(=O)NC1N=C(c2ccccc2)c2ccccc2NC1=O (mixture of isomers)    not fulfilled
3. COc1cccc(NC(=O)N[C@H]2N=C(c3ccccc3)c3ccccc3N(C)C2=O)c1    fulfilled
4. O=C(NC1N=C(c2ccccc2)c2ccccc2NC1=O)c1ccc(C(F)(F)F)cc1 (racemic)    not fulfilled
5. O=C(NC1N=C(c2ccccc2F)c2ccccc2N(C(=O)c2ccc(Cl)cc2)C1=O)c1ccc(Cl)cc1 (racemic)    fulfilled

Given the entry N#Cc1ccc(C(=O)NC2N=C(c3ccccc3)c3ccccc3NC2=O)cc1 (racemic) , would its reported IC50 be below 9 µM?
not fulfilled

---

# tested system: Gastrin receptor (gastric glands) (Cavia porcellus, UniProt H0VZC5)
# Construct: The washed guinea pig gastric glands prepared as above were resuspended; from tissue; host or cells: guinea pig gastric mucosal glands (male Hartley)
# assay: Gastrin Receptor Binding in Guinea Pig Gastric Glands
# Set-up: species or system guinea pig (male Hartley)
# conditions used: ^125 I-gastrin, 25° C., 30 minutes, read-out: IC50 ^125 I-Gastrin Gastric Glands
Each item that follows carries a reported pIC50.
Value format note: pIC50 is -log10 of concentration (mol/L); just state the number.

Observe how each entry below is paired with its result.
1) O=C(Cc1ccc(Cl)cc1)NC1N=C(c2ccccc2)c2ccccc2NC1=O (stereo not shown) [Example 240]    5.15
2) COc1cccc(NC(=O)NC2N=C(c3ccccc3)c3ccc(C)cc3N(C)C2=O)c1 (stereo not shown) [Example 295]    7.47

Please report the recorded pIC50 for CN1C(=O)C(NC(=O)c2ccccc2Cl)N=C(c2ccccc2)c2ccccc21 (racemic) [Example 139] .
4.52

Try the compound CN1C(=O)C(NC(=O)c2ccc(C(F)(F)F)cc2)N=C(c2ccccc2F)c2ccccc21 (stereo not shown) [Example 218]
5.74

Now the same for CN1C(=O)[C@H](NC(=O)c2ccc(C(F)(F)F)cc2)N=C(c2ccccc2)c2ccccc21 [Example 207]
5.38

Check Cc1cccc2c1NC(=O)C(NC(=O)c1cc3ccccc3[nH]1)N=C2c1ccccc1 (stereo not shown) [Example 287] too.
6.02

# iterate: Cc1cccc(NC(=O)N[C@@H]2N=C(c3ccccc3)c3ccccc3N(C)C2=O)c1 [Example 281]
9.18

---

# tested system: Gastrin receptor (gastric glands) (Cavia porcellus)
# Construct: The washed guinea pig gastric glands prepared as above were resuspended; from tissue; host or cells: guinea pig gastric mucosal glands (male Hartley)
# Sequence (H0VZC5 1-426): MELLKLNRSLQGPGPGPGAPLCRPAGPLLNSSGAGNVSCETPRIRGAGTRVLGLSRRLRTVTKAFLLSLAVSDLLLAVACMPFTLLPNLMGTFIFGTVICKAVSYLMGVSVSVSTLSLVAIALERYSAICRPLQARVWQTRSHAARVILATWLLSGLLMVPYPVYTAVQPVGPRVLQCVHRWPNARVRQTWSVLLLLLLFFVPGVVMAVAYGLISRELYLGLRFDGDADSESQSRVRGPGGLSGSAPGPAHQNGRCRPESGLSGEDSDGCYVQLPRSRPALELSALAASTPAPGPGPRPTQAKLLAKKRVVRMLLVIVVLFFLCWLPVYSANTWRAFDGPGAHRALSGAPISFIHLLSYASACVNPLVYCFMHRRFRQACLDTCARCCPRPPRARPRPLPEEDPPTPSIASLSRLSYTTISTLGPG
# assay: Gastrin Receptor Binding in Guinea Pig Gastric Glands
# Design: species or system guinea pig (male Hartley)
# conditions used: ^125 I-gastrin, 25° C., 30 minutes, read-out: IC50 ^125 I-Gastrin Gastric Glands
experimental readout: IC50

Here are 4 compounds together with their reported answers.
1) CN1C(=O)C(C(=O)c2ccsc2)=NC(O)(c2ccccc2)c2ccccc21 (racemic) [Example 53b]    > 100 µM
2) O=C(NC1N=C(c2ccccc2F)c2ccccc2NC1=O)c1ccc2ccccc2n1 (racemic) [Example 116]    > 10 µM
3) CN1C(=O)[C@@H](NC(=O)[C@@H](N)Cc2ccccc2)N=C(c2ccccc2)c2ccccc21 [Example 84a]    > 40 µM
4) O=C(OC1N=C(c2ccccc2F)c2ccccc2N(C(=O)c2ccc(Cl)cc2)C1=O)c1ccc(Cl)cc1 (racemic) [Example 178]    > 100 µM

Please examine the following record next.
GET /values?readout=IC50&item= CSC1=N[C@@H](Cc2cn(C)c3ccccc23)C(=O)N(C)c2ccccc21 [Example 7]
> 100 µM
